# Test system: ISC-enriched organoids
# Assay: Primary screen, 384-well 2.5-D organoid differentiation (ENR+CD, 6 days, Target Selective Inhibitor Library, vs whole-plate median): ATP (CellTiter-Glo 3D, CTG)
# Measurement conditions: Dose 10.00 uM; standard z score of FC
Counter-ions that a name gives are not always drawn.
In plain terms, low Z.CTG, meaning strictly below -2, gives true, and everything else gives false.

Example entries begin here.
C[C@H](N[C@@H](CCc1ccccc1)C(=O)O)C(=O)N1CCC[C@H]1C(=O)O.O.O [Enalaprilat Dihydrate] = true
C=CC(=O)Nc1cccc(Nc2nc(Nc3ccc(Oc4ccnc(C(=O)NC)c4)cc3)ncc2F)c1 = false
C[C@@H](NCCCc1cccc(C(F)(F)F)c1)c1cccc2ccccc12 [Cinacalcet HCl] = false
CS(=O)(=O)N1CCN(Cc2cc3nc(-c4cccc5[nH]ncc45)nc(N4CCOCC4)c3s2)CC1 = true
CCCC(=O)Nc1cccc(NC(=O)c2ccccc2Br)c1 = false

Q. Decide: Z.CTG of COc1ccc2cc([C@H](C)C(=O)O)ccc2c1 strictly below -2?
A. true

Q. Decide: Z.CTG of Cc1ccc([C@@H]2O[C@H](CO)[C@@H](O)[C@H](O)[C@H]2O)cc1Cc1ccc(-c2ccc(F)cc2)s1 strictly below -2?
A. false

Q. Decide: Z.CTG of CO[C@H]1C[C@@H]2CC[C@@H](C)[C@@](O)(O2)C(=O)C(=O)N2CCCC[C@H]2C(=O)O[C@H]([C@H](C)C[C@@H]2CC[C@@H](OCCO)[C@H](OC)C2)CC(=O)[C@H](C)/C=C(\C)[C@@H](O)[C@@H](OC)C(=O)[C@H](C)C[C@H](C)/C=C/C=C/C=C/1C [Everolimus (RAD001)] strictly below -2?
A. false

Q. Decide: Z.CTG of C/C(=N\NC(=S)N1CCC1)c1ccccn1 strictly below -2?
A. true

Q. Decide: Z.CTG of CCn1c2ccccc2c2cc(Nc3ccnc(NCCCN4CCOCC4)n3)ccc21 strictly below -2?
A. false

Q. Decide: Z.CTG of NC1(Cc2ccc(Cl)cc2)CCN(c2ncnc3[nH]ccc23)CC1 [CCT128930, reference compound] strictly below -2?
A. false

Q. Decide: Z.CTG of CCOc1nc2cccc(C(=O)O)c2n1Cc1ccc(-c2ccccc2-c2nnn[nH]2)cc1 strictly below -2?
A. false

---

# System: ISC-enriched organoids
# Assay: Primary screen, 384-well 2.5-D organoid differentiation (ENR+CD, 6 days, Target Selective Inhibitor Library, vs whole-plate median): ATP (CellTiter-Glo 3D, CTG)
# Measurement conditions: Dose 10.00 uM; primary screen
Each entry below carries its reported Z.CTG (standard z score).
Note: the reply should be a number with no unit written.

Q. Field request: Z.CTG (standard z score) | item: Cc1cc2c(cc1CC(=O)c1sccc1S(=O)(=O)Nc1onc(C)c1Cl)OCO2 [Sitaxentan sodium]
A. −0.240

Q. Field request: Z.CTG (standard z score) | item: C#CCC(Cc1cnc2nc(N)nc(N)c2n1)c1ccc(C(=O)N[C@@H](CCC(=O)O)C(=O)O)cc1 (stereo partly drawn) [Pralatrexate]
A. −2.201

Q. Field request: Z.CTG (standard z score) | item: CC(C)(C)c1cnc(CSc2cnc(NC(=O)C3CCNCC3)s2)o1
A. −2.411

---

Each entry below carries its reported Dose.FC.CTG.
# Test system: ISC-enriched organoids
# Assay: Primary screen, 384-well 2.5-D organoid differentiation (ENR+CD, 6 days, Target Selective Inhibitor Library, vs whole-plate median): ATP (CellTiter-Glo 3D, CTG)
# Measurement conditions: primary screen, dose 2.00 uM, ENR+CD 6 days, FC vs plate median
Write it as a number; the unit log 2 fold change goes unstated.

Guide cases for Dose.FC.CTG, answers given:
CN(C)Cc1ccc(-c2nc3cccc4c3n2CCNC4=O)cc1 = 0.005
NC(=O)Nc1cc(-c2cccc(F)c2)sc1C(=O)N[C@H]1CCCNC1 = −0.804
C=CC(=O)Nc1cccc(Nc2nc(Nc3ccc(OCCOC)cc3)ncc2F)c1 = −0.058

Q. Field request: Dose.FC.CTG | item: COc1ccnc2[nH]cc(C(=O)C(=O)N3CCN(C(=O)c4ccccc4)C[C@H]3C)c12
A. −0.289

Q. Field request: Dose.FC.CTG | item: C=C1C(=O)O[C@H]2[C@H]1CC/C(C)=C/CC[C@@]1(C)O[C@@H]21 [(−)-Parthenolide]
A. 0.157

Q. Field request: Dose.FC.CTG | item: COc1cc(CCc2cc(NC(=O)c3ccc(N4CC(C)NC(C)C4)cc3)n[nH]2)cc(OC)c1 (stereo not drawn)
A. −0.010

---

# Test system: ISC-enriched organoids
# Assay: Primary screen, 384-well 2.5-D organoid differentiation (ENR+CD, 6 days): carbachol-induced lysozyme secretion (LYZ.S)
# Assay type: cell-based, murine
# Measurement conditions: Dose 2.00 uM; primary screen, FC vs plate median
Each entry below carries its reported Dose.FC.LYZ.S.
Write it as a number; the unit log 2 fold change goes unstated.

CC(C)(F)C[C@H](N[C@@H](c1ccc(-c2ccc(S(C)(=O)=O)cc2)cc1)C(F)(F)F)C(=O)NC1(C#N)CC1 = 0.036
O=C(Nc1ccccc1)c1cc([N+](=O)[O-])ccc1Cl = 0.093

Moving on to the next compound.
Q. Field request: Dose.FC.LYZ.S | item: CC(C)(Cc1ccc2ccccc2c1)NC[C@@H](O)COc1cccc(Cl)c1C#N
A. −0.161

---

# Tested on: ISC-enriched organoids
# Assay: Primary screen, 384-well 2.5-D organoid differentiation (ENR+CD, 6 days, Target Selective Inhibitor Library, vs whole-plate median): ATP (CellTiter-Glo 3D, CTG)
# Measurement conditions: Dose 2.00 uM; standard z score of FC
Endpoint label: Z.CTG

C=C[C@@]1(C)CC(=O)[C@]2(O)[C@@]3(C)[C@@H](O)CCC(C)(C)[C@@H]3[C@H](O)[C@H](OC(C)=O)[C@@]2(C)O1 [Forskolin] = −0.789

Q. Field request: Z.CTG | item: CC(C)Oc1ccc(-c2cnc3c(-c4ccnc5ccccc45)cnn3c2)cc1 [DMH1]
A. −0.004

Q. Field request: Z.CTG | item: CCOc1ccccc1-n1c(C(C)N2CCN(C(=O)COc3ccc(Cl)cc3)CC2)nc2ccccc2c1=O (stereo not shown) [Erastin]
A. 0.907

Q. Field request: Z.CTG | item: O=C(NC(NC(=S)Nc1ccc(F)c([N+](=O)[O-])c1)C(Cl)(Cl)Cl)C(c1ccccc1)c1ccccc1 (stereo not shown) [CGK733]
A. −0.582

---

Each entry below carries its reported Z.CTG.
# Tested on: ISC-enriched organoids
# Assay: Primary screen, 384-well 2.5-D organoid differentiation (ENR+CD, 6 days, Target Selective Inhibitor Library, vs whole-plate median): ATP (CellTiter-Glo 3D, CTG)
# Measurement conditions: Dose 0.08 uM; primary screen, standard z score
Where a name gives a salt, the structure may show the parent alone.
Note: the reply should be a number with no unit written.

Cc1cc(Nc2cc(CN3CCOCC3)c3nc(C)c(Cc4ccc(Cl)cc4F)n3n2)n[nH]1 = 0.259
O=C(c1ccc(Nc2nccc(-c3cc4ccccc4s3)n2)cc1)N1CCC(N2CCCC2)CC1 = 0.139
Cl.O=C(O)Cc1cccc(OCCCN(Cc2cccc(C(F)(F)F)c2Cl)CC(c2ccccc2)c2ccccc2)c1 [GW3965 HCl] = 0.330

Q. Field request: Z.CTG | item: CCOC(=O)[C@H](CCc1ccccc1)N[C@@H](C)C(=O)N1C(=O)N(C)C[C@H]1C(=O)O [Imidapril HCl]
A. −0.796

---

Each entry below carries its reported Z.CTG (standard z score).
# System: ISC-enriched organoids
# Assay: Primary screen, 384-well 2.5-D organoid differentiation (ENR+CD, 6 days, Target Selective Inhibitor Library, vs whole-plate median): ATP (CellTiter-Glo 3D, CTG)
# Measurement conditions: dose 0.08 uM
Where a name gives a salt, the structure may show the parent alone.
Note: the reply should be a number with no unit written.

Guide cases for Z.CTG (standard z score), answers given:
c1ccc(CC2=NCCN2)cc1 [Tolazoline HCl] = 0.585
CC(C)(C)c1cc(/C=C(\C#N)C(N)=S)cc(C(C)(C)C)c1O [Tyrphostin AG 879] = −0.828
C[C@H](NC(=O)Cc1cc(F)cc(F)c1)C(=O)N[C@@H]1C(=O)N(C)c2ccccc2-c2ccccc21 [YO-01027] = 0.528
CC(C)C[C@@H](C(=O)N[C@H](C(=O)OC1CCCC1)c1ccccc1)[C@H](O)C(=O)NO [Tosedostat (CHR2797)] = −0.232
O=c1oc2cc(O)ccc2s1 [Tioxolone] = 0.586

Q. Field request: Z.CTG (standard z score) | item: NC(=O)Nc1sc(-c2ccc(F)cc2)cc1C(N)=O [TPCA-1]
A. −0.146

Q. Field request: Z.CTG (standard z score) | item: COc1ccc2cc(-c3nc(-c4ccc([S+](C)[O-])cc4)[nH]c3-c3ccncc3)ccc2c1 (stereo not drawn) [Tie2 kinase inhibitor]
A. 0.012

Q. Field request: Z.CTG (standard z score) | item: CN(C)CCOc1ccc(/C(=C(/CCCl)c2ccccc2)c2ccccc2)cc1 [Toremifene Citrate]
A. 0.822

Q. Field request: Z.CTG (standard z score) | item: C[C@@H](c1ncncc1F)[C@](O)(Cn1cncn1)c1ccc(F)cc1F [Voriconazole]
A. 0.617
